- Tested on: MET(Y1235D);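 further: KINOMEscan scanMAX binding as percent activity remaining versus control; lower means stronger binding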
- recorded_conditions: Compound Concentration (nM):1000
Known Percent Control of a selection of molecules
reported_property: Percent Control (%)

CC1=C(C(=O)Nc2ccc3[nH]ncc3c2)C(c2ccc3ccccc3c2)CC(=O)N1 (stereo not drawn) [GSK270822A]	87
COc1ccc2[nH]c3c4[nH]c5ccc(OC)cc5c4c4c(c3c2c1)C(=O)NC4=O [GW296115X]	76
Cl.O=C(Nc1ccc(Oc2ccc3[nH]c(NC(=O)c4ccco4)nc3c2)cc1)Nc1cc(C(F)(F)F)ccc1F [GW683134A]	6.6
COc1ccccc1-c1cc(/C=C2\C(=O)Nc3ncc(Br)cc32)cc(Br)c1O [GW442130X]	100
CCn1c(-c2nonc2N)nc2c(C#CC(C)(C)O)nc(OCCNC)cc21.Cl	100
NS(=O)(=O)c1ccc(N/N=C2\C(=O)Nc3ccc(Cl)cc32)cc1 [GW280670X]	100
